B1: POU domain, class 2, transcription factor 2, residues 200 to 269; numbered along this chain, P09086 (parent)
chain: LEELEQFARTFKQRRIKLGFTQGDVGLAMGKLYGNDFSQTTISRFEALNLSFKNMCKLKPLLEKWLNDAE

variants of: B1; test: abundance fitness (aPCA) (normalised: wild type 0, dead -1); higher = more abundant; growth selection in yeast, the domain comes from the species named; conditions: Homo sapiens
reportedEndpoint: abundance fitness

>  <variantDescriptor>
E5R

>  <abundance fitness>
0

$$$$

Fill blank: measured abundance fitness of the variant `S51Y` is ____.
-0.461

Give the measured abundance fitness of `D68V` .
-0.054

Can you look up the measured abundance fitness of `S38W` for me?
-0.157

Fill in the blank: the reported abundance fitness of `L62P` is ____.
-0.93

Look at this variant and give its reported abundance fitness. `K59C`
-0.14

Look up abundance fitness: `S43I`
-0.024

Which abundance fitness is reported for this variant? `F37D`
-0.4

Entry under review: `N35R` . Reported abundance fitness?
-0.022

Endpoint output: abundance fitness of `K59E` . Value?
-0.293

Please look up its abundance fitness: `L50E`
0.008

Record request: abundance fitness value, item `R14I`
-0.261

Entry `D36E` : reported abundance fitness = ?
-0.026

What does the record list as abundance fitness for `L58W` ?
-0.007

What does the record list as abundance fitness for `F45R` ?
-0.965

Can you look up the measured abundance fitness of `F20L` for me?
-0.004

Fill in: abundance fitness of `K31S` is ___
-0.033

What value of abundance fitness has been reported for the following variant? `K59P`
-0.761

Look at this variant and give its reported abundance fitness. `K53F`
-0.044

State the recorded abundance fitness for this entry: `R44A`
0.04
